Test: inhibitors of Sendai virus-induced IRF3 signaling, primary screen, TLR/RLR signaling modifier project, cell-based, Sendai virus stimulus, luciferase, 10K MLSCN set (AID 602276);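 note: firefly luciferase from ISG56 promoter only with Renilla not read in this screen; 0% = Sendai virus plus DMSO and 100% = medium plus DMSO without virus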
Settings: HEK293 RL24 IRF3 luciferase reporter, at 10 µM, hits give high values
assay.metric: inhibition (%)
Enter your answer as a number in %; do not include the unit.

Report inhibition for CN1CCN(CC#CCC(O)(c2ccccc2)C2CCCC2)CC1 (stereo not drawn) please. 7.06

inhibition for `COc1ccc(-n2c(SCc3ccc(C#N)cc3)nnc2-c2ccccn2)cc1` ? -1.12

Which inhibition value belongs to COc1ccc(-c2[nH]nc3c2C(c2ccncc2)C(C#N)=C(N)O3)cc1 (stereo not drawn) ? 6.11

What measured inhibition goes with `CCc1nc2sc3ccccc3c(=O)c2c(=O)n1Cc1ccco1` ? -14.6

Any idea what inhibition was measured for `O=C(Nc1ccccc1-c1ccccc1)NC1CCN(C(=O)N2CCOCC2)CC1` ? 13.4

I'd like to know its inhibition. The compound in question is `O=C(Nc1nnc(-c2ccc(Cl)cc2)o1)C1CCCCC1` 6.6

Tell me the measured inhibition of `COc1ccc2c(CC(=O)Nc3nnc(C4CC4)s3)coc2c1` , please. 9.99

Which inhibition value is on record for `CC/C(O)=C(/C#N)c1nnc2n1CCCCC2` ? 7.71

Record request: inhibition value, item CCc1nnc(NC(=O)C2Cc3ccccc3CN2S(=O)(=O)c2cccs2)s1 (stereo not drawn) -21.3

I would be grateful if you could share the reported inhibition for `CC(=O)N(C(C)=O)c1ncc2c([nH]c3ccccc32)c1C#N` . 11.7

Need inhibition, item `O=C(c1cc2ccccc2oc1=O)N1CCN(c2ccc(N3CCOCC3)nn2)CC1` -9.88

Record request: inhibition value, item COc1ccc(C2C(C(=O)Nc3cccnc3)=C(C)Nc3nc(-c4cccs4)nn32)cc1OC (stereo not drawn) 7.94

Value lookup for inhibition; key = O=C(Nc1ccc(N2C(=O)C3C4C=CC(C4)C3C2=O)cc1)Nc1nncs1 (stereo not drawn) 2.97

What does the data say about its inhibition? Entry: `COc1ccc(C(=O)N(CCCO)Cc2cc3c(C)ccc(C)c3[nH]c2=O)cc1OC` 8.26

Fill in: inhibition of `O=C(Nc1cccc(-c2nnc(-c3ccccc3)o2)c1)C1CCCCC1` is ___ -20.4

Which inhibition value is on record for `Clc1ccc(-n2nnnc2Sc2ncnc3sccc23)cc1` ? 5.22

Recorded inhibition for O=C(C1CCCN(S(=O)(=O)c2cnc[nH]2)C1)N1CCN(c2ccc(Cl)cc2)CC1 (stereo not drawn) , please? -6.86

Using the record for `O=c1[nH]c2sc3c(c2c2nncn12)CCCC3` , report its inhibition. 7.28

Entry `CCOC(=O)CSc1nnc(NCC(=O)OC(C)C)c(=O)[nH]1` : reported inhibition = ? 9.31

Query: inhibition; subject: `c1ccc(-n2ncc3c(NCc4cccs4)ncnc32)cc1` -19.7

# get_value(readout='inhibition', item= `CCOC(=O)c1[nH]c(C)c(C(=O)N2CCN(C(=O)c3ccco3)CC2)c1C` ) 16.8

Requested field: inhibition. Item: `CN(C)c1oc(-c2ccccc2F)nc1C#N` -3.37

Can you look up the measured inhibition of Cc1ccsc1C(C(=O)NC1CCCCC1)N(C(=O)Cc1cccs1)C1CC1 (stereo not drawn) for me? 15.2
